The origin of these recorded values is patent US10807964B2.

# Test: Mouse plasma concentration after oral administration
# Type: in vivo
# Recorded Conditions: 4 h after oral gavage at 100 mg/kg, average of three mice
Mark Condition met for concentration at 4 h under 0.2 µM, Condition not met if at or over.

>>> class_assignment("Cc1cccc(C)c1C(=O)c1sc2cc(O)ccc2c1Oc1ccc(/C=C/C(=O)O)cc1")
"Condition met"
>>> class_assignment("Cc1cc(F)ccc1C(=O)c1sc2cc(O)ccc2c1Oc1ccc(/C=C/C(=O)O)cc1")
"Condition met"
>>> class_assignment("Cc1cc(F)cc(C)c1C(=O)c1sc2cc(O)ccc2c1Oc1ccc(/C=C/C(=O)O)cc1")
"Condition met"
>>> class_assignment("Cc1ccc(C(=O)c2sc3cc(O)ccc3c2Oc2ccc(/C=C/C(=O)O)cc2)c(C)c1")
"Condition not met"
>>> class_assignment("Cc1cc(Cl)cc(C)c1C(=O)c1sc2cc(O)ccc2c1Oc1ccc(/C=C/C(=O)O)cc1")
"Condition not met"
>>> class_assignment("Cc1ccccc1C(=O)c1sc2cc(O)ccc2c1Oc1ccc(/C=C/C(=O)O)cc1")
"Condition met"

====

# Test: Mouse plasma concentration after oral administration
# Format: in vivo
# Recorded Conditions: 0.5 h after oral gavage at 100 mg/kg, average of three mice
Quantity Name: concentration at 0.5 h (µM)

>>> val("Cc1ccccc1C(=O)c1sc2cc(O)ccc2c1Oc1ccc(/C=C/C(=O)O)cc1 [Compound 5]")
5.58
>>> val("Cc1cc(F)cc(C)c1C(=O)c1sc2cc(O)ccc2c1Oc1ccc(/C=C/C(=O)O)cc1 [Compound 20]")
9.72
>>> val("Cc1ccc(C(=O)c2sc3cc(O)ccc3c2Oc2ccc(/C=C/C(=O)O)cc2)c(C)c1 [Compound 12]")
3.87
>>> val("Cc1cc(F)ccc1C(=O)c1sc2cc(O)ccc2c1Oc1ccc(/C=C/C(=O)O)cc1 [Compound 1]")
1.24
>>> val("Cc1cccc(C)c1C(=O)c1sc2cc(O)ccc2c1Oc1ccc(/C=C/C(=O)O)cc1 [Compound 11]")
1.01
